Cited source for all entries: PubChem BioAssay (Tox21)

experiment: qHTS RealTime-Glo MT Cell Viability Assay in HEK293 cells - 16 hour (AID 1224872); conditions: RealTime-Glo luminescence; series mostly up to 76.8 µM; further: nearly all actives have a fitted effect of over 50% in size; further: potency means the concentration at half of the fitted maximal effect
Records with an inconclusive call do not appear. Calls of active or inactive are those of the source. The call rests on the fitted dose curve; in most records, active means well fitted cell-killing curve with a large enough effect in the repeat runs; inconclusive means weak or mixed curves, or effect the other way; inactive means flat fitted curve, though single readings scatter.
QUANTITY_NAME: Potency

O=C(O)c1c(Cl)cccc1Cl | inactive
CCC(C)Nc1ccc(NC(C)CC)cc1 (stereo not drawn) | 4.45 µM (active)
NC(=O)N1C(=O)C(C(=O)c2cc(Cl)cs2)c2cc(F)c(Cl)cc21 (stereo not drawn) | inactive

* * *

assay: qHTS assay to identify small molecule phospholipidosis (PLD) inducers (AID 1259344); conditions: HepG2 phospholipidosis, LipidTOX Red imaging, 24 h; series mostly up to 38.3 µM
Records with an inconclusive call do not appear. The source made the active and inactive calls. The call rests on the fitted dose curve; in most records, active means well fitted activation curve with a large enough effect; inconclusive means small, poorly fitted or top-dose-only effect; inactive means flat fitted curve, though single readings scatter.
Write down one outcome, taken from YES = active, NO = inactive

O=C(c1ccc(F)cc1)C1CCN(CCn2c(=O)[nH]c3ccccc3c2=O)CC1 | NO
CC(C)(C)CC(C)(C)c1ccc(OCCOCC[N+](C)(C)Cc2ccccc2)cc1 | NO
CCCC(=O)OC[C@@H](OC(=O)CCC)[C@@H](OC(=O)CCC)[C@H](Cn1c2nc(=O)[nH]c(=O)c-2nc2cc(C)c(C)cc21)OC(=O)CCC | NO
CCOc1ccc2nc3cc(N)ccc3c(N)c2c1 | NO
OCCN1CCN(CC/C=C2/c3ccccc3Sc3ccc(C(F)(F)F)cc32)CC1 | YES

*Q* GET /call?item= CCCCC(CC)COC(=O)c1ccccc1C(=O)O (stereo unspecified) returns the recorded outcome of this test.
*A* NO

*Q* GET /call?item= "COc1c(C)c2c(c(O)c1C/C=C(\C)CCC(=O)O)C(=O)OC2" returns the recorded outcome of this test.
*A* NO

*Q* GET /call?item= "O=C(Nc1ccc(Oc2ccc(Cl)cc2)c(Cl)c1)c1cc(I)cc(I)c1O" returns the recorded outcome of this test.
*A* NO

*Q* GET /call?item= "CC(C)=CCOc1ccc(/C=C/C(=O)c2ccc(OCC=C(C)C)cc2OCC(=O)O)cc1" returns the recorded outcome of this test.
*A* NO

*Q* GET /call?item= "O=C(NOCC1CC1)c1ccc(F)c(F)c1Nc1ccc(I)cc1Cl" returns the recorded outcome of this test.
*A* NO

*Q* GET /call?item= "CN(C)[C@@H]1C(=O)C(C(N)=O)=C(O)[C@@]2(O)C(=O)C3=C(O)c4c(O)ccc(Cl)c4[C@@H](O)[C@H]3C[C@@H]12" returns the recorded outcome of this test.
*A* NO

*Q* GET /call?item= COC(=O)C1=C(C)NC(C)=C(C(=O)OCC(C)C)C1c1ccccc1[N+](=O)[O-] (stereo unspecified) returns the recorded outcome of this test.
*A* NO

*Q* GET /call?item= "O=C1Cc2cc(CCN3CCN(c4nsc5ccccc45)CC3)c(Cl)cc2N1" returns the recorded outcome of this test.
*A* NO

*Q* GET /call?item= "CCCCCCCCOc1ccccc1C(=O)Nc1ccc(C(=O)OCC[N+](C)(CC)CC)cc1" returns the recorded outcome of this test.
*A* NO

*Q* GET /call?item= "OC1(c2ccc(Cl)c(C(F)(F)F)c2)CCN(CCCC(c2ccc(F)cc2)c2ccc(F)cc2)CC1" returns the recorded outcome of this test.
*A* NO

*Q* GET /call?item= "CC(C)(C)CC(C)(C)c1ccc(O)c(Cc2ccc(Cl)cc2Cl)c1" returns the recorded outcome of this test.
*A* NO
